- Tested on: P. falciparum 3D7 parasites
- assayName: P. falciparum growth inhibition assay, 1-cycle (72 h treatment), SYBR DNA staining (library screen at 2 μg/mL and dose-response)
- Format: cell-based, Plasmodium falciparum
- conditionParameters: Plasmodium falciparum, 3D7, 72 h, library screen at 2 μg/mL, 72 h, % growth, replicate 1; read-out: Pf_72h_%Growth_Rep1

{"molecule": "C/C(=C\\c1csc(C)n1)[C@@H]1C[C@@H]2O[C@@H]2CCC[C@H](C)[C@H](O)[C@@H](C)C(=O)C(C)(C)[C@@H](O)CC(=O)O1", "activity at 2 µg/mL": "5.34%"}
{"molecule": "COC[C@@H](C[C@H]1O[C@@](O)([C@H](O)[C@@H]2C[C@H](OC)[C@@H](O)CC/C=C(C)/C=C/[C@@H](O[C@@H]3O[C@@H](C)[C@H](OC)[C@@H](O)[C@@H]3O)[C@H](C)/C=C(C)/C=C(C)/C=C(\\C)C(=O)O2)[C@H](C)[C@@H](O)[C@H]1C)OC1C[C@](C)(O)[C@@H](O[C@H]2C[C@@H](OC)[C@H](O)[C@@H](C)O2)[C@H](C)O1 (stereo partly shown)", "activity at 2 µg/mL": "59%"}
{"molecule": "CC[C@H]1OC(=O)[C@H](C)[C@@H](O[C@H]2C[C@@](C)(OC)[C@@H](O)[C@H](C)O2)[C@H](C)[C@@H](O[C@@H]2O[C@H](C)C[C@H](N(C)C)[C@H]2O)[C@](C)(O)C[C@@H](C)[C@@H]2N[C@@H](COCCOC)O[C@H]([C@H]2C)[C@]1(C)O", "activity at 2 µg/mL": "80.4%"}
{"molecule": "CC[C@@H]1C[C@H]2CC[C@H](O2)[C@H](C)C(=O)O[C@@H](C)C[C@@H]2CC[C@@H](O2)[C@@H](C)C(=O)O[C@H](CC)C[C@H]2CC[C@H](O2)[C@H](C)C(=O)O[C@@H](C)C[C@@H]2CC[C@@H](O2)[C@@H](C)C(=O)O1", "activity at 2 µg/mL": "3.66%"}

---

- Test system: P. falciparum 3D7 parasites
- assayName: P. falciparum growth inhibition assay, 2-cycle (120 h treatment), delayed-death screen and dose-response
- Assay type: cell-based, Plasmodium falciparum
- conditionParameters: library screen at 2 μg/mL, 120 h, % growth, replicate 2
Some compounds, each annotated with its measured Pf_120h_%Growth_Rep2.

{"compound": "CC[C@H](C)[C@H]1O[C@]2(C=C[C@@H]1C)C[C@@H]1C[C@@H](C/C=C(\\C)[C@@H](O)[C@@H](C)/C=C/C=C3\\CO[C@@H]4[C@H](O)C(C)=C[C@@H](C(=O)O1)[C@]34O)O2 [Avermectin B1a aglycone]", "Pf_120h_%Growth_Rep2 / %": 74.45}
{"compound": "CO[C@H]1/C=C/C=C/C=C/C[C@H](OC(=O)[C@@H](C)NC(=O)C2CCCCC2)[C@H](C)[C@@H](O)/C(C)=C\\CCC2=CC(=O)C=C(NC(=O)C1)C2=O [Ansatrienin A]", "Pf_120h_%Growth_Rep2 / %": -9.91}
{"compound": "COc1c(O)c2c(=O)cc3c4c5c(cc(=O)c6c(O)c(OC)c(C[C@H](C)OC(C)=O)c(c(c1C[C@H](C)OC(C)=O)c24)c65)OCO3 [Diacetylcercosporin]", "Pf_120h_%Growth_Rep2 / %": 6.35}
